Inhibition at 100 μM values, listed per item
system: Botrytis cinerea (B05.10); assay: Resazurin antifungal assay of 180 alpha-factor peptide variants towards Botrytis (Example 2); assay type: cell-based; settings: % inhibition of fungal growth, Botrytis conidia, peptide 100 μM, resazurin
Peptide text beside a SMILES is read from it.

COMPOUND	TARGET_OR_SYSTEM	Inhibition at 100 μM
CC[C@H](C)[C@H](NC(=O)[C@H](CCCCN)NC(=O)[C@H](CC(C)C)NC(=O)[C@H](CCC(N)=O)NC(=O)[C@H](CC(C)C)NC(=O)[C@@H](NC(=O)[C@H](CCCCN)NC(=O)[C@@H](N)Cc1c[nH]c2ccccc12)[C@@H](C)O)C(=O)NCC(=O)N[C@@H](C)C(=O)N1CCC[C@H]1C(=O)N[C@@H](CCSC)C(=O)N[C@@H](Cc1ccc(O)cc1)C(=O)O [compound 60] (H-WKTLQLKIGAPMY-OH; N-terminus and C-terminus assumed)	Botrytis cinerea (B05.10)	100%
CSCC[C@H](NC(=O)[C@@H]1CCCN1C(=O)[C@H](CCC(N)=O)NC(=O)CNC(=O)[C@@H]1CCCN1C(=O)[C@H](Cc1c[nH]cn1)NC(=O)[C@H](CC(C)C)NC(=O)[C@H](CCC(N)=O)NC(=O)[C@@H](NC(=O)[C@H](CO)NC(=O)[C@H](Cc1c[nH]cn1)NC(=O)[C@@H](N)Cc1c[nH]c2ccccc12)C(C)C)C(=O)N[C@@H](Cc1ccc(O)cc1)C(=O)O [compound 174] (H-WHSVQLHPGQPMY-OH; N-terminus and C-terminus assumed)	Botrytis cinerea (B05.10)	<90%
CSCC[C@H](NC(=O)[C@H](CO)NC(=O)[C@H](CO)NC(=O)CNC(=O)[C@@H]1CCCN1C(=O)[C@H](CCCCN)NC(=O)[C@H](CC(C)C)NC(=O)[C@H](CCC(N)=O)NC(=O)[C@H](CC(C)C)NC(=O)[C@@H](NC(=O)[C@H](CCCNC(=N)N)NC(=O)[C@@H](N)Cc1c[nH]c2ccccc12)C(C)C)C(=O)N[C@@H](Cc1ccc(O)cc1)C(=O)O [compound 50] (H-WRVLQLKPGSSMY-OH; N-terminus and C-terminus assumed)	Botrytis cinerea (B05.10)	<90%
